B1: TPR t1 (parent)
chain: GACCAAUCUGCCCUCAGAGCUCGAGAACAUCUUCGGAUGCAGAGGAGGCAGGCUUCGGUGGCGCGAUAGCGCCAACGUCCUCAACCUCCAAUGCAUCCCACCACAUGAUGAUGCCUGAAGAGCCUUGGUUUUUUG

Variants of: B1
Experiment: polymerase ribozyme fitness, log enrichment relative to wild type (log ratio); higher = more active; in vitro selection for triplet polymerase activity
Label rule, in plain words: polymerase ribozyme fitness (log ratio) of -1 and up is fulfilled, under -1 is not fulfilled.

Query block: // inclusive: polymerase ribozyme fitness (log ratio) at least -1? input: U38G G69A U112A
Result block: not fulfilled

Query block: And G61A C62U ?
Result block: not fulfilled

Query block: Continue with G17A G63U A90C U112A
Result block: not fulfilled

Query block: Consider next the variant A16G G60U A90U in the same way.
Result block: not fulfilled

Query block: Would you kindly repeat that for C89U G117A U129A ?
Result block: not fulfilled

Query block: Try this variant next: C80A U96C
Result block: not fulfilled

Query block: What about this variant? U133A
Result block: fulfilled

Query block: Next up: A29G G48U G57C C73U
Result block: not fulfilled

Query block: // repeat for G69A G93U A111G G122A and report
Result block: not fulfilled

Query block: Please do the same for A43C U87C as well.
Result block: not fulfilled

Query block: Same question, G44C G61C A100C U106A this time
Result block: not fulfilled

Query block: Another variant to check: G60U U87A C123G
Result block: fulfilled

Query block: Lookup C34A G61C A91C A121U U134C
Result block: not fulfilled

Query block: Consider next the variant A2C A5C C62A G128C in the same way.
Result block: not fulfilled

Query block: Lookup G39U A41U
Result block: not fulfilled

Query block: Also, C49U C102G C104A C124A U130A please.
Result block: not fulfilled

Query block: Consider next the variant G117C U132A in the same way.
Result block: not fulfilled

Query block: Now consider U38C G44U A111G U133G .
Result block: not fulfilled

Query block: Also G51U C88U G113C ?
Result block: not fulfilled

Query block: Item: G69A C82G
Result block: not fulfilled

Query block: Further, for A5G C89U ?
Result block: fulfilled

Query block: Now this one: C31A C72U C123A U125G U129A U133G
Result block: not fulfilled

Query block: Ok, now A6C G52U G63A
Result block: fulfilled

Query block: Here is the next variant: C72U G107C U109A U130A
Result block: not fulfilled

Query block: G77A U87A A111U G122U , same question.
Result block: not fulfilled

Query block: Note, next up: U55C C72A U78C C79U A121G
Result block: fulfilled

Query block: Also, G19U U55G C70U please.
Result block: not fulfilled

Query block: Would you kindly repeat that for G44A G47U U78C G110A ?
Result block: not fulfilled

Query block: Same lookup for A29U A46G C115G , please.
Result block: not fulfilled

Query block: Next entry: G71A G110U
Result block: not fulfilled

Query block: What do you get for C49A C56A U131C U133A ?
Result block: fulfilled

Query block: Try this variant too: C13U G122A
Result block: fulfilled

Query block: How about G71A U92A A121U ?
Result block: not fulfilled

Query block: Also check G61U A103C
Result block: not fulfilled

Query block: Now consider C53G C56G C82G C85A C94G .
Result block: not fulfilled

Query block: Another: C101A G117U G122A U125A
Result block: not fulfilled

Query block: Another variant: C102A G135U
Result block: not fulfilled

Query block: Please do the same for C8G C22G G36A C85U U112A as well.
Result block: not fulfilled

Query block: Also G45A A74U U112G , if possible.
Result block: fulfilled

Query block: Also U54C U106A C124U ?
Result block: fulfilled

Query block: Also C11U A18U C20U C56U C101A , if possible.
Result block: not fulfilled

Query block: Check G10A G93U C102A too.
Result block: not fulfilled

Query block: What about A119U U132A ?
Result block: fulfilled

Query block: Try this variant next: C11G G19A G47C G48A
Result block: not fulfilled

Query block: How about this variant: G36U C56U C115G
Result block: not fulfilled

Query block: Then what about the variant C12A G51U G77A ?
Result block: not fulfilled

Query block: Next up: C3U A119G
Result block: fulfilled

Query block: Do the same for C56G U112G please
Result block: fulfilled

Query block: Moving on to the next variant: G69U C70G U87G G117A
Result block: not fulfilled

Query block: Ok, now C72U U129A
Result block: not fulfilled

Query block: One more variant: C8G G10A
Result block: fulfilled

Query block: Next entry: G23C C49G G51C G61U G117U G128C
Result block: not fulfilled

Query block: Entry to check: C82G C88G
Result block: not fulfilled

Query block: Same question, C94U C115A this time
Result block: fulfilled

Query block: Note, next up: U112A G120A
Result block: fulfilled
